Parameter 'readout' = IC50; parameter 'system' = Human CARM1 (PRMT4) (Homo sapiens).
Sequence (Q86X55 2-585 isoform Q86X55-1): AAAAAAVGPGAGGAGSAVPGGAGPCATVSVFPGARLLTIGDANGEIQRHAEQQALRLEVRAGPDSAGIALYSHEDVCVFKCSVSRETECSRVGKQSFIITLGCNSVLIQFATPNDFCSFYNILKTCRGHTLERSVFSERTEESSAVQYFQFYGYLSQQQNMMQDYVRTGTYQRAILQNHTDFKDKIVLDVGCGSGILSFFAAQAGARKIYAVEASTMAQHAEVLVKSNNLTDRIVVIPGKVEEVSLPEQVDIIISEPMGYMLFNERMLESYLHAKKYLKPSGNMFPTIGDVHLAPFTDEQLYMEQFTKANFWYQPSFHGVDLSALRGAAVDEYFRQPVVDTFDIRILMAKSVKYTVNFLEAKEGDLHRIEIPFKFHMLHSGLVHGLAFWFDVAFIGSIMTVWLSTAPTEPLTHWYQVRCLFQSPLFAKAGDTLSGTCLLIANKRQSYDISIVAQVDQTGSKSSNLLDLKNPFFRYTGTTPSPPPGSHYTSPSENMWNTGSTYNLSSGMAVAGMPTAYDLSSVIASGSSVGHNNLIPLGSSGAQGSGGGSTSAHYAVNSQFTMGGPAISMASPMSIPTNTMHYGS
Answer with the figure and its unit, nothing else.

Sample answers from the record:
[[record]]
molecule = "CNCCN(C)Cc1cccc(-c2cc(N3CCC(C(F)(F)F)CC3)c3cnn(C(C)C)c3n2)c1 [Compound 50]"
observed_value = "0.0276 µM"

[[record]]
molecule = "Cc1c(C(=O)NCc2ccccc2)cc(-c2ccc(CN(C)CCN)cc2)c2cn[nH]c12 [Compound 7]"
observed_value = "6.83 µM"

[[record]]
molecule = "NCCNCc1ccc(-c2ccc3cnn(Cc4cccc(Oc5ccccc5)c4)c3c2)cc1 [Compound 334]"
observed_value = "3.13 µM"


Turning now to a further record.
Under Human CARM1 (PRMT4) (Homo sapiens): IC50 value of NCCNCc1ccc(-c2ccc3ncn(C4CCNCC4)c3c2)cc1 [Compound 157] ? 4.6 µM
